Values compiled from the supplement of paper PMC7726561.

molecular target: HLA-C*04:01; assay: thermal melting temperature (Tm) of peptide-HLA complex; higher = more thermostable pHLA complex; conditions: C1R-A*02:01
assay_endpoint: thermal melting temperature
Form entry: enter the amount, then its unit.

Here are 5 sequences together with their reported answers.
| query_sequence | assay_value |
| --- | --- |
| SFDEIHQLF | 47.8 °C |
| TFDVSPKAV | 41.9 °C |
| TFDVSILTI | 44.9 °C |
| MLDPLEVHL | 47.2 °C |
| TFDLTVVSY | 53.5 °C |

Shift focus to the following entry.
Quick note, thermal melting temperature for IYDVQHANL landed at 50.7 °C
